Reported activation at 10 µM values follow for various compounds
- system name: human GLP1R (Homo sapiens, UniProt P43220)
- Construct: expressed in transfected cells; host or cells: CHO cells (ATCC), transient transfection with pCMV-human GLP1R
- Sequence (P43220 24-463): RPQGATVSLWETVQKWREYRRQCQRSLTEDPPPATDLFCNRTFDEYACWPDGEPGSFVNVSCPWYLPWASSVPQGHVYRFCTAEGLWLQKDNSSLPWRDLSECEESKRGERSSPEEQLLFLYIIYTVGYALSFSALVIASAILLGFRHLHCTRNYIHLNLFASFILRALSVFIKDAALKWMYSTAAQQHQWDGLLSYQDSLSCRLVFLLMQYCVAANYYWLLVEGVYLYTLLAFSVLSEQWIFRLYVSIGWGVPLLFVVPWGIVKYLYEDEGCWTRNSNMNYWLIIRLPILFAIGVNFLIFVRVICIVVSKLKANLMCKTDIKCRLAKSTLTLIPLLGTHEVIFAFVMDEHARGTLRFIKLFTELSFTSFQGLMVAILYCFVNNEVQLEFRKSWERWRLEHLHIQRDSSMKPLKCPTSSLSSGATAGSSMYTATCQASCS
- method description: Human GLP-1 receptor transfected cell assay (MRE/CRE-luciferase reporter gene, agonist activity)
- Format: cell-based
- condition parameters: 6 h; concentration 10 μM; read-out: Activity (agonist), percentage of the activity of the control
- Description: The glucagon-like peptide I receptor (GLP1R) is a class B Gs-coupled membrane receptor, an agonist of which activates adenylate cyclase (AC) and elevates intracellular cAMP level. […] Before transfection, CHO cells were plated into a 6-well culture plate at 800,000/2 mL/well, and cultured at 37° C. in 5% CO2 overnight. […] The activity of luciferase was detected using BRIGHT-GLO™ Luciferase Analytic System, and the reading was performed with a Flexstation3 plate reader machine.

| compound | activation at 10 µM |
| --- | --- |
| COc1cc2c(cc1OC(=O)c1ccc(NC(=O)OC(C)(C)C)cc1)CN(S(=O)(=O)c1ccc(C)cc1)C(C(=O)O)C2 (stereo not drawn) | > 60% |

For the compound Cc1ccc(-c2ccc(NC(=O)NC(Cc3ccc(-c4noc(-c5ccc(NC(=O)OC(C)(C)C)cc5)n4)c(F)c3)C(=O)O)nc2)cc1F (stereo not drawn) , give its measured activation at 10 µM value.
> 60%

For the compound Cc1ccc(-c2cccc(C(=O)N[C@H](Cc3ccc(-c4noc(-c5ccc(NC(=O)OC(C)(C)C)cc5)n4)c(F)c3)C(=O)O)c2)s1 , give its measured activation at 10 µM value.
> 60%
